Test system: SK-MEL-5
assay: NCI tumour cell line growth inhibition, 48 h
Calls of active or inactive are those of the source. Rule as the data show it: active = GI50 up to about 1.1 µM and inactive = higher.
readout kind: GI50

Record excerpt, results attached:
| compound | GI50 |
| --- | --- |
| Nc1nc2c(N)cc(C(F)(F)F)cc2nc1-c1ccccc1 | > 100 µM (inactive) |
| COC(=O)CN1Cc2cc(C)cc(c2O)CN(CC(=O)OC)Cc2cc(C)cc(c2O)CN(CC(=O)OC)Cc2cc(C)cc(c2O)C1 | > 57.5 µM (inactive) |
| COc1cccc2c1C(=O)c1c(O)c3c(c(O)c1C2=O)C[C@@](O)(C(C)=O)CC3OC1CC(OC2CC(N)C(O)C(C)O2)C(O)C(C)O1 (some centres undefined) | 35.7 µM (inactive) |
| CN1CCN(/C(N)=C(\C#N)C(=O)Nc2ccccc2)CC1 | > 100 µM (inactive) |
| CCOC(=O)c1ccc(N(CCOS(=O)(=O)c2ccc(C)cc2)CCOS(=O)(=O)c2ccc(C)cc2)cc1 | > 100 µM (inactive) |
| OCCN=C1c2ccccc2C2C(c3ccccc31)C1c3ccccc3C(=NCCO)c3ccccc3C21 (centres undefined) | 16.8 µM (inactive) |

Batch: GI50 for all items listed.
1. Cc1ccc(S(=O)OCC23CC4CC(CC(C4)C2)C3)cc1 (centres undefined)
2. CCC1(CC)C(=O)NN(C(=O)c2ccccc2)C1=O
3. COc1ccc2c(c1)O[C@@H]1C(O)Oc3cc(OC)c(OC)cc3[C@]1(O)C2=O (some centres undefined)

(A)
1. > 100 µM (inactive)
2. > 100 µM (inactive)
3. 10.5 µM (inactive)

* * *

Tested on: SN12C
assay: NCI tumour cell line growth inhibition, 48 h
Active and inactive are the calls of the source. Rule as the data show it: active = GI50 up to about 1.1 µM and inactive = higher.
readout kind: GI50

Record excerpt, results attached:
| molecule | assay target | GI50 |
| --- | --- | --- |
| C/C=C(/CCCCNCCCC)[Si](C)(C)C | SN12C | 16.2 µM (inactive) |
| CC1OC(OC2C(O)COC(OC3C(C)OC(OC4C(OC(=O)[C@]56CCC(C)(C)C[C@@H]5C5=CCC7[C@@]8(C)C[C@H](O)[C@H](OC9OC(CO)C(O)C(OC%10OC(CO)C(O)C(O)C%10O)C9O)[C@@](C)(CO)[C@@H]8CC[C@@]7(C)[C@]5(C)CC6)OCC(O)C4O)C(O)C3OC3OCC(O)(CO)C3O)C2O)C(O)C(O)C1O (some centres undefined) | SN12C | 3.66 µM (inactive) |
| Nc1nnc(-c2ccco2)c(-c2ccco2)n1 | SN12C | > 100 µM (inactive) |

Let us examine a further case.
(Q) Recorded GI50 of `Clc1cc2c(c(CSC3=NCN(CC4CC4)CN3)c1)OCOC2` , please.
(A) 28.6 µM (inactive)

* * *

System: OVCAR-5
assay: NCI tumour cell line growth inhibition, 48 h
The source made the active and inactive calls. Cut-off read from the data, not from the text of the source: active = GI50 up to about 1.1 µM and inactive = higher. Where a SMILES comes first, the peptide text is derived from it. The star is where a group is joined. Boc = CC(C)(C)OC(=O)*; OBn = c1ccc(CO*)cc1
readout kind: GI50

| compound | readout kind | test value |
| --- | --- | --- |
| CC(C)CC(NC(=O)C(Cc1ccccc1)NC(=O)C(Cc1ccccc1)NC(=O)OC(C)(C)C)C(=O)OCc1ccccc1 (stereo not drawn) (Boc-Phe-Phe-Leu-OBn; configuration not given here) | GI50 | > 100 µM (inactive) |

Batch: GI50 for all items listed.
1. Cc1ccc(Nc2n[nH]c(NS(=O)(=O)c3cc(C(=O)Nc4ccc(Cl)cc4)c(Cl)cc3S)n2)cc1
2. COc1cc(/C=C/C(=O)c2c([O-])on[n+]2-c2ccccc2)ccc1O
3. CN1c2ccccc2N(C(=O)c2ccccc2)C(CC(=O)O)c2cccn21 (centres undefined)

(A)
> 100 µM (inactive)
11 µM (inactive)
> 100 µM (inactive)

* * *

Tested on: ACHN
assay: NCI tumour cell line growth inhibition, 48 h
Calls of active or inactive are those of the source. No stated cut-off is given here; in the data, active = GI50 up to about 1.1 µM and inactive = higher.
readout kind: GI50

Batch: GI50 for all items listed.
1. O=C(/C=C/c1cccc2ccccc12)c1ccccc1Cl
2. CCN(CC)CC(=O)Nc1ccc2c(c1)C(=O)c1ccc(NC(=O)CN(CC)CC)cc1C2=O
3. CC1=NNC(=O)C1C1(C(=O)O)CC(c2c[nH]c3ccccc23)=NC(=S)N1 (stereo not given)
4. CC(C)(C)c1cc(C(O)(C(F)(F)F)C(F)(F)F)c2c(c1)C(C(F)(F)F)(C(F)(F)F)OC(C(C)(C)C)N2 (stereo not given)
5. COc1cc2c(cc1C)NC(=O)/C2=C/c1c(Cl)[nH]c2ccccc12

(A)
1: 17.5 µM (inactive); 2: 25.5 µM (inactive); 3: 33.5 µM (inactive); 4: 2.72 µM (inactive); 5: 10.6 µM (inactive)

* * *

Provide the reported GI50 of each item.
Tested on: NCI-H522
assay: NCI tumour cell line growth inhibition, 48 h
Calls of active or inactive are those of the source. Cut-off read from the data, not from the text of the source: active = GI50 up to about 1.1 µM and inactive = higher.

| compound | GI50 |
| --- | --- |
| CCCNC(=S)NNC(=O)CSc1nc(-c2ccccc2)c(-c2ccccc2)[nH]1 | 26.7 µM (inactive) |

Batch: GI50 for all items listed.
1. CCCCCCCCCCCCC(=O)OC(c1cnco1)c1nc(C(O)CC(O)C(O)C(C)O)co1 (stereo unspecified)
2. O=Cc1cc2c(o1)C(=O)c1ccccc1C2=O
3. O=[N+]([O-])c1ccc(C2Nn3c(nnc3-c3cccc([N+](=O)[O-])c3)S2)cc1 (stereo unspecified)
4. OCCN(C1=NCCN1)/[N+](=C/c1ccc(Cl)cc1)[CH-]c1ccc(Cl)cc1
5. COc1cc(CNc2nc3ccccc3nc2C(=O)O)cc(OC)c1OC
6. COC(=O)/C=C(\C(=O)OC)c1c2c3c(cc(OC)c(OC)c3c3ccccc13)CCN2C

(A)
0.787 µM (active)
1.48 µM (inactive)
> 100 µM (inactive)
84.3 µM (inactive)
71.9 µM (inactive)
23.1 µM (inactive)

* * *

Tested on: OVCAR-3
assay: NCI tumour cell line growth inhibition, 48 h
The source made the active and inactive calls. No stated cut-off is given here; in the data, active = GI50 up to about 1.1 µM and inactive = higher.
Field 'call' accepts active, inactive

Examples from the recorded data:
| compound | label class |
| --- | --- |
| COc1ccc2c(c1)C(N)CC2=O (stereo unspecified) | inactive |
| CC(C)c1ccc2c(c1)/C(=C1/Nc3ccccc3C1=O)C(=O)N2 | inactive |
| Cn1cc(NC(=O)c2cc(NC(=O)Nc3cc(C(=O)Nc4cc(C(=O)NCCC(=N)N)n(C)c4)n(C)c3)cn2C)cc1C(=O)NCCC(=N)N | inactive |
| CC(C)(C)C1CC[C@H](O)[C@H]([C@H](O)CC2CC(=O)N(c3ccccc3)C(=O)C2)C1 (stereo partly specified) | inactive |
| COC(=O)C(=O)C(C(=O)C=C(C)C)C(=O)C(=O)Nc1ccc(C)cc1C (stereo unspecified) | inactive |
| CC[C@]1(Cc2ccc(OC)c(OC)c2)C=[N+]([O-])O[C@H](OC2CCCCC2c2ccccc2)[C@@H]1OC(C)=O (stereo partly specified) | inactive |

(Q) What did the test return for `COc1cc2c(oc(=O)c3c4oc([Si](C)(C)C)cc4cc(OC)c23)c2cccc(O)c12` ?
(A) inactive

(Q) What did the test return for `O=C1C=CC2=[N+]([O-])C(c3ccccc3)(c3ccccc3)/C(=N\c3ccccc3)C2=C1` ?
(A) inactive

(Q) What did the test return for `COC(=O)CN1Cc2cc(C)cc(c2O)CN(CC(=O)OC)Cc2cc(C)cc(c2O)CN(CC(=O)OC)Cc2cc(C)cc(c2O)C1` ?
(A) inactive

(Q) What did the test return for `COc1ccc2nccc(NCCCN3CCN(CCCNc4ccnc5ccc(OC)cc45)CC3)c2c1` ?
(A) inactive

(Q) What did the test return for CCOc1ccc(NC(=O)/C(=N\N)C(C(=O)OC)c2nc3ccc(Cl)cc3nc2O)cc1 (stereo unspecified) ?
(A) inactive

(Q) What did the test return for `N#Cc1nc(CN2C(=O)c3ccccc3C2=O)oc1N` ?
(A) inactive

(Q) What did the test return for CCCCCCCCCCCCC(=O)OC(c1cnco1)c1nc(C(O)CC(O)C(O)C(C)O)co1 (stereo unspecified) ?
(A) inactive

(Q) What did the test return for `CC(C)(C)OC(=O)N[C@H]1CC(=O)c2ccccc2N(CC(=O)O)C1=O` ?
(A) inactive

(Q) What did the test return for `Cc1[nH]c2ccccc2c1C1=CC(=O)N(c2ccccc2)C1=O` ?
(A) inactive

(Q) What did the test return for `COc1cc2c(cc1OC)C(=O)N(c1ccc(OCCN3CCCC3)cc1)C2` ?
(A) inactive

(Q) What did the test return for `Cc1ccc(NC(=O)c2cc3ccccc3c(/N=N\c3ccccc3O)c2O)c(C)c1` ?
(A) active

(Q) What did the test return for `CSc1cc(Cl)c(C)cc1S(=O)(=O)NC(=O)NNc1ccc(F)c(Cl)c1` ?
(A) inactive

(Q) What did the test return for NC(CCC(=O)NC(CSC(=O)N(O)c1ccc(Cl)cc1)C(=O)NCC(=O)O)C(=O)O (stereo unspecified) ?
(A) active

(Q) What did the test return for `COP(=O)(OC)/C(=C/c1cn(C(c2ccccc2)(c2ccccc2)c2ccccc2)cn1)NC=O` ?
(A) inactive

(Q) What did the test return for c1nc(N2CC2)c2cnn(C3CCCCO3)c2n1 (stereo unspecified) ?
(A) inactive
